assayedTarget: Follistatin (Homo sapiens) (UniProt P19883)
Sequence (P19883 whole entry, looked up): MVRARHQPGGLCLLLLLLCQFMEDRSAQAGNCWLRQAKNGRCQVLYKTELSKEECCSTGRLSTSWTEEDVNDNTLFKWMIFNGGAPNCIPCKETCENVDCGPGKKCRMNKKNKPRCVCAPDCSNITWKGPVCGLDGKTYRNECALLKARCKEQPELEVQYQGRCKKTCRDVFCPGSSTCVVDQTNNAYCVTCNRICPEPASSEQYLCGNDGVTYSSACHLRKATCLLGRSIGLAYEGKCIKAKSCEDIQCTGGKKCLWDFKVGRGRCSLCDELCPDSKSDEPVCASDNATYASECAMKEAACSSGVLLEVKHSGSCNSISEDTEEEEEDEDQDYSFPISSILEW
protocolDetails: follistatin binders on small-molecule microarrays, primary screen, biochemical, small-molecule microarray, 635/667 nm fluorescence (AID 1132)
measurementConditions: FST binding, 635 nm fluorescence, higher = more signal
Each record here notes measured composite z-score.
measuredQuantity: composite z-score

1. CC(C)[Si]1(C(C)C)OCc2cc(C3CC3)nc(-c3ccccc3)c21 = 0.441
2. C=CC[C@]1(C(=O)O)N=C(c2ccc(OCCCO)cc2)O[C@H]1c1ccccc1N=[N+]=[N-] = -0.0493
3. CO[C@@H]1COC(=O)[C@H](C)NC(=O)CC=C[C@@H](C)[C@H](NS(=O)(=O)c2ccc(C)cc2)COC(=O)CC=C[C@@H]1C = -0.268
4. O=C(NCC(O)CO)[C@]1(Cc2ccccc2)N=C(c2ccc(OCCCO)cc2)O[C@@H]1c1ccccc1 (some centres undefined) = 0.585
5. CC/C=C/C(=O)N(C[C@@H]1CCCO1)[C@@H]1CC(C(=O)NCCO)=C[C@H](Oc2c(I)cc(CO)cc2OC)[C@H]1O = -0.227
6. COc1ccc(-c2cc3c(c(-c4ccccc4)n2)[Si](C(C)C)(C(C)C)O[C@H]3c2ccccc2)cn1 = 0.758
7. O=C/C=C/c1ccccc1Cl = 0.0323
8. CCCNC(=O)[C@@H]1c2ccccc2C(=O)N(Cc2cc(F)cc(C(F)(F)F)c2)[C@H]1c1ccc(CO)cc1 = 1.41
9. COc1cc2c(cc1OC)CN(C(=O)[C@H]1[C@@H]3C(=O)O[C@@H](c4ccccc4)[C@@H](c4ccccc4)N3[C@@H](c3ccc(O)cc3)[C@]13C(=O)Nc1ccc(C#CC4(O)CCCCCC4)cc13)CC2 = 1.28
10. CC(=O)NCCCC[C@@H]1NC(=O)[C@H]2C[C@@H](C(=O)NCCCCCCN(C)C)[C@@H](c3ccc(O)cc3)N2C1=O = 1.34
11. [N-]=[N+]=Nc1ccccc1C[C@@]1(C(=O)N2CCOCC2)N=C(c2ccc(OCCCO)cc2)O[C@@H]1c1ccccc1N=[N+]=[N-] = 1.42
12. O=C1NC(=O)C2C1C=CC(C(O)C=Cc1ccc([N+](=O)[O-])cc1)N2Nc1ccccn1 (centres undefined) = 0.637
13. Cc1ccc(S[C@]2(C(=O)NCCN3CCOCC3)CC(=O)N(C3Cc4ccccc4C3)[C@@H]2c2ccc(CO)cc2I)cc1 = -1.23
14. CC(C)N1CC=CC23O[C@@H]4/C=C\CCCOC(=O)C4[C@H]2C(=O)N(CCO)[C@@H]3C1=O (some centres undefined) = -0.544
15. Cc1ccc(S[C@]2(C(=O)O)CC(=O)N(Cc3ccccc3)[C@@H]2c2ccc(CO)cc2)cc1 = -0.256
16. CCCCO[C@H]1C[C@H]2C(Br)=C[C@@]1(CO)C(=O)[C@]21CO1 = 0.452
17. C=CCN1C(=O)[C@@]2(O[C@@H](CCn3cc([C@H](O)c4ccccc4)nn3)[C@H]([Si](C)(C)c3ccc(OC)cc3)[C@H]2C)c2cc(N3CCOC3=O)ccc21 = 0.0302
18. C=CCN(C(=O)C1N(c2ccc(CCO)cc2)C(=O)C2C(C(=O)O)C3C=CC21O3)C(C)(C)C (centres undefined) = -2.8
19. O=C1c2ccccc2[C@](Cc2ccccc2I)(C(=O)NCc2ccccc2)[C@H](c2ccc(CO)cc2)N1Cc1ccccc1C(F)(F)F = -1.2
20. C=CC[C@]1(C(=O)OC)N=C(c2ccc(OCCCO)cc2)O[C@H]1c1ccccc1CN=[N+]=[N-] = 0.286
21. C[C@@H]1CC[C@H]2C(=O)N3CCC[C@H]3C(=O)N2[C@H]1c1ccc(Br)cc1 = 0.162
22. Cc1ccc(N2C(=O)c3ccccc3[C@](C)(C(=O)O)[C@@H]2c2ccc(CO)cc2)nc1 = -1.04
23. COC(=O)C[C@H]1O[C@]2(C(=O)N(C)c3ccccc32)[C@@H](C)[C@@H]1[Si](C)(C)c1ccc(OC)cc1 = 0.328
24. C[N+](C)(C)CCCCNC(=O)[C@H]1C[C@H]2C(=O)NCC(=O)N2[C@H]1c1cccc(OCCO)c1 = 1.49
25. COCCOC(=O)N1C(=O)[C@@]2(c3cc(C#CCNC(N)=O)ccc31)[C@H](c1ccccc1OCCO)N1[C@H](c3ccccc3)[C@H](c3ccccc3)OC(=O)[C@H]1[C@@H]2C(=O)NC[C@H](O)c1ccccc1 = 1.28
26. C=CCNC(=O)[C@@H]1[C@H]2C(=O)O[C@H](c3ccccc3)[C@H](c3ccccc3)N2[C@H](c2ccc(OCCO)cc2)[C@@]12C(=O)N(C(=O)OCCOC)c1ccc(C#CC3(O)CCCCCC3)cc12 = 1.18
27. C=C[C@H](OC)[C@@H](OC(=O)Nc1ccc(SC)cc1)c1ccc(O)c(F)c1 = 0.171
28. COc1cccc([C@@H]2[C@@H](C)CC[C@H]3C(=O)N(C)[C@@H](C(C)C)C(=O)N23)c1 = 0.388
29. N#Cc1ccc(NN2C(C(O)c3ccc(I)cc3)C=CC3C(=O)N(c4ccccc4)C(=O)C32)cc1 (centres undefined) = 0.402

// provenance: PubChem BioAssay
